Note to self: these compounds have Ki reported for UniProt:P00918 in various publications.
Write the answer as a number in µM, unit excluded.

Here are 3 compounds together with their reported answers.
CCCCCCN(CCCCCC)CCC(=O)N(CCc1ccc(S(N)(=O)=O)cc1)Cc1ccco1 | 0.0604
C[C@H](CCC(=O)NCCC(=O)Nc1nnc(S(N)(=O)=O)s1)[C@H]1CC[C@H]2[C@@H]3[C@H](O)C[C@@H]4C[C@H](O)CC[C@]4(C)[C@H]3CC[C@]12C | 0.002
COC(=O)CCCCCNc1ccn(O)c(=O)n1 | 270

Lab note: need Ki with UniProt:P00918 for entry `COC(=O)[C@H]1O[C@@H](SNCCc2ccc(S(N)(=O)=O)cc2)[C@H](OC(C)=O)[C@@H](OC(C)=O)[C@H]1OC(C)=O` , please look it up. 0.0162

Enter reported Ki observed with UniProt:P00918 for `Nc1ccc(-c2ccc(S(N)(=O)=O)cc2)cc1` 0.0091

For the record `NC1CCN(C(=O)c2ncc(-c3ccc(S(N)(=O)=O)cc3)o2)CC1` , what value of Ki is listed for UniProt:P00918? 0.00054

Provide value of Ki for this record tested with UniProt:P00918: `NS(=O)(=O)c1cc(C(=O)NCCCC(=O)O)ccc1Cl` 0.4

Checklist item: Ki tested on UniProt:P00918, entry `Nc1nc(-c2ccc(NC(=O)CCNC(=O)c3ccc(S(N)(=O)=O)cc3)cc2)cn2c(=O)n(-c3ccccc3)nc12` , value? 0.0086

Short answer please: Ki, UniProt:P00918, entry `NS(=O)(=O)OCCOc1ccc(-n2ccnc2)cc1` 0.007

Query for UniProt:P00918: what Ki does the record show for `CCN(CCC(=O)N(CCc1ccc(S(N)(=O)=O)cc1)Cc1ccccc1)Cc1ccccc1` ? 0.0796

* * *

Here we gather log10(Ki) data for UniProt:P00918 reported by several publications.
A difference of one corresponds to tenfold Ki; all values are log10 with Ki in µM.

These recorded examples may help you get a feel for the data.
CC(=O)O[C@@H]1[C@@H](OC(C)=O)[C@H]([Se]c2ccc(S(N)(=O)=O)cc2)O[C@H](CO)[C@H]1OC(C)=O | -2.43
Cc1ccc(OS(N)(=O)=O)cc1 | -2.72
CN(C)c1ccc(C(=O)O)cc1 | 0.52

For the compound `NS(=O)(=O)c1ccc(CNc2nc(Cl)nc(NCCC(=O)O)n2)cc1` , what log10(Ki) is on record? -0.59

Please look up its log10(Ki): `C[C@H](CCC(=O)Nc1ccc(S(N)(=O)=O)cc1)[C@H]1CC[C@H]2[C@@H]3CC[C@@H]4C[C@H](O)CC[C@]4(C)[C@H]3C[C@H](O)[C@]12C` -0.68

Give its log10(Ki) value. Item: `NS(=O)(=O)c1ccc(-c2noc(C3CC3)n2)cc1` -2.39

State the recorded log10(Ki) for this entry: CC(Nc1nc(Cl)nc(Nc2ccc(S(N)(=O)=O)cc2)n1)C(=O)O (racemic) -0.25

What value of log10(Ki) has been recorded for this entry: `NS(=O)(=O)c1ccc(-n2ncc(N3CCc4ccccc4C3)c(Cl)c2=O)cc1` -1.22

I'd like to know its log10(Ki). The compound in question is `O=C1Nc2ccc(Br)cc2S(=O)(=O)N1` 0.37

Given the entry `Cc1nc(-c2csc(S(N)(=O)=O)c2)no1` , report its measured log10(Ki). -3.04

What value of log10(Ki) has been recorded for this entry: `NS(=O)(=O)c1ccc(-n2ncc(NCCCN3CCOCC3)c(Cl)c2=O)cc1` -3.17

Form field: reported log10(Ki) of `C[C@H](CCC(=O)OCCOc1ccc2nc(S(N)(=O)=O)sc2c1)[C@H]1CC[C@H]2[C@@H]3C(=O)C[C@@H]4CC(=O)CC[C@]4(C)[C@H]3CC(=O)[C@]12C` -3.10

Which log10(Ki) value belongs to `CCCC(CCC)C(=O)Nc1ccc2nc(S(N)(=O)=O)sc2c1` ? -2.15

What does the record list as log10(Ki) for `NS(=O)(=O)c1ccc(N/C(S)=N\c2ccc(C(=O)O)cc2)cc1` ? -1.80

Which log10(Ki) reading was recorded for the compound `CCn1cc(-c2cc(C(=O)O)n[nH]2)c2ccccc21` ? 3.26

* * *

Literature-derived pKi for Carbonic anhydrase 2 (Homo sapiens) follows.
# reply with the number alone; pKi is -log10 of concentration in mol/L

The following compounds have reported results that may help.
CCCCCCN(CCCCCC)CCC(=O)N(CCc1ccc(S(N)(=O)=O)cc1)Cc1ccccc1 | 6.24
CCCCCN(CCCCC)CC(=O)N(CCc1ccc(S(N)(=O)=O)cc1)Cc1ccccc1 | 6.90
CC(=O)OC[C@H]1O[C@@H]([Se]c2ccc(NC(=O)c3ccc(Cl)c(S(N)(=O)=O)c3)cc2)[C@H](OC(C)=O)[C@@H](OC(C)=O)[C@@H]1OC(C)=O | 6.67
O=C1Nc2ccc(Cl)cc2S(=O)(=O)N1 | 5.94
CC(C)CSc1cc2c(cc1S(N)(=O)=O)S(=O)(=O)NCN2 | 5.57

What pKi value was documented for this compound, `COc1ccc(S(=O)(=O)NO)cc1N` ? 7.36

Which pKi reading was recorded for the compound `NS(=O)(=O)c1ccc(-n2cc(CO[C@@H]3O[C@H](COCc4ccccc4)[C@@H](OCc4ccccc4)[C@H]3OCc3ccccc3)nn2)cc1` ? 8.12

Data request, read-out pKi, for `NS(=O)(=O)c1ccc(-n2ncc(N3CCOCC3)cc2=O)cc1` 9.26

* * *

// cross-source set; read-out = Ki; system = Carbonic anhydrase 2 (Homo sapiens, UniProt P00918)

# annotated cases, reported Ki shown
COc1ccc(NS(N)(=O)=O)cc1 | 11 nM
COC(=O)c1ccc(C(O)c2ccc(-c3ccc(S(N)(=O)=O)cc3)cc2)cc1 (stereo unspecified) | 6.6 nM
COc1cccc(-c2noc(-c3ccc(S(N)(=O)=O)cc3)n2)c1 | 0.48 nM
CCOC(=O)c1cc(S(N)(=O)=O)c(SSc2cc(Cl)c(C(=O)OCC)cc2S(N)(=O)=O)cc1Cl | 5570 nM
Nc1ccc(C(=O)N2CCN(C(=O)c3ccc(S(N)(=O)=O)cc3)CC2)cc1 | 78.8 nM
NS(=O)(=O)c1ccccc1NSC(=S)N1CCOCC1 | 780 nM

Next, consider the following compound.
Lookup: Ki / Carbonic anhydrase 2 (Homo sapiens, UniProt P00918) / `CC(C)(C)c1ccc(CNCCc2ccc(S(N)(=O)=O)cc2)cc1` 8.6 nM

* * *

# pKi against Carbonic anhydrase 2 (Homo sapiens), merged from multiple literature sources
Would you please state pKi, meaning minus log10 of the concentration in mol/L, as a bare number?

CC(=O)CC(=O)Nc1ccc(S(N)(=O)=O)cc1 | 7.40
NS(=O)(=O)c1cc2c(s1)S(=O)(=O)C1(CC1)CN2 | 7.96

Next, consider the following molecule.
Would you kindly share the measured pKi for CC(=O)N1N=C(c2cccc(OS(N)(=O)=O)c2)CC1c1cc(Cl)ccc1Cl (stereo not given) ? 7.03

* * *

A compilation of Ki values for UniProt:P00918 from the published literature.

Consider the worked cases shown below.
CC(C)(C)n1c(=O)cc(-c2ccccc2)[s+]1[O-] (centres undefined) | > 10000 nM
NS(=O)(=O)c1ccc(C(=O)c2cccc(C(=O)O)n2)cc1 | 132 nM
COC(=O)CCNS(=O)(=O)Oc1ccccc1O | > 200000 nM

For the molecule shown here, `NS(=O)(=O)c1ccc(CNC(=O)c2ccc(S(N)(=O)=O)cc2)cc1` , give the reported Ki. 7 nM

Which Ki value belongs to `O=C(CN(Cc1ccccc1[N+](=O)[O-])S(=O)(=O)c1c(F)c(F)c(F)c(F)c1F)NO` ? 74 nM

# input molecule: `CC(=O)OC[C@H]1O[C@@H](O[C@H]2[C@H](OC(C)=O)[C@@H](OC(C)=O)[C@H](NC(=S)NCc3ccc(S(N)(=O)=O)cc3)O[C@@H]2COC(C)=O)[C@H](OC(C)=O)[C@@H](OC(C)=O)[C@H]1OC(C)=O` ; wanted: its Ki 390 nM

I would be grateful if you could share the reported Ki for `COC(=O)Cc1c(C)c2ccc(OCC(=O)c3ccc(Cl)cc3)cc2oc1=O` . > 10000 nM

Data request, read-out Ki, for `CC1=NN(c2ccc(Cl)cc2Cl)C(=O)/C1=N/Nc1cccc(S(N)(=O)=O)c1` 473 nM

Given CCCCNC1CCS(=O)(=O)c2sc(S(N)(=O)=O)cc21.Cl (centres undefined) , state its recorded Ki. 1.8 nM

* * *

What follows is literature data on Ki for Carbonic anhydrase 2 (Homo sapiens, UniProt P00918).
Lab note: compare Ki with 50 nM, writing true if less and false if equal or more.

Recorded results for 10 compounds are shown here.
C[C@H](CCC(=O)NNc1ccc(S(N)(=O)=O)cc1)[C@H]1CC[C@H]2[C@@H]3CC[C@@H]4C[C@H](O)CC[C@]4(C)[C@H]3CC[C@]12C | false
CC(C)(C)c1ccc(OS(N)(=O)=O)cc1 | true
CCOC(=O)N1CCN(C(=S)SCC(=O)Nc2ccc(S(N)(=O)=O)cc2)CC1 | true
CC(=O)Nc1ccc(S(N)(=O)=O)cc1I | true
CCCN(CCC)S(=O)(=O)c1ccc(C(=O)NC2CCC(C)CC2)cc1 (stereo unspecified) | false
NC(=O)CC[C@H](NC(=O)c1ccc(S(N)(=O)=O)cc1)C(=O)O | false
Cc1cc(-c2cc(C)c(O)c(C)c2)cc(C)c1O | false
COc1ccc(C(=O)O)cc1 | false
Cn1cc(S(N)(=O)=O)c2cc(NC(=O)c3ccnc(O)c3)ccc21 | false
NS(=O)(=O)c1ccc(NC(=S)N[C@@H]2O[C@H](CO)[C@H](O)[C@H](O)[C@H]2O)cc1 | false

Ki strictly < 50 nM for this compound? CCCN(CCC)S(=O)(=O)c1ccc(C(=O)NC2CCCC(C)C2)cc1 (stereo unspecified) false

Given `CC(=O)Oc1ccc2oc(=O)ccc2c1` , is recorded Ki strictly lower than 50 nM? false

In plain terms, does CC(NOCc1ccc(Cl)cc1)C(=O)NO (stereo unspecified) come in under 50 nM for Ki? false

Input `C[C@H](CCC(=O)Nc1nnc(S(N)(=O)=O)s1)[C@H]1CC[C@H]2[C@@H]3[C@@H](O)C[C@@H]4C[C@H](O)CC[C@]4(C)[C@H]3CC[C@]12C` ; condition: Ki strictly below 50 nM. Does it hold? true

Is Ki strictly under 50 nM for the entry `CCN(CC)CCOC(=O)c1ccc(S(=O)(=O)Nc2nnc(S(N)(=O)=O)s2)cc1` ? true

For CC(=O)N1N=C(c2ccc(OS(N)(=O)=O)cc2)CC1c1ccc(Cl)cc1 (stereo unspecified) , is the recorded Ki below the cut-off of 50 nM? true

Threshold test, Ki < 50 nM: `NS(=O)(=O)c1cc(S(=O)(=O)c2ccc(O)cc2)cs1` true

Confirm or reject: Ki of `CCCCOc1ccc2ccc(=O)oc2c1C(C)=O` lies strictly below 50 nM false

Criterion: Ki strictly below 50 nM. Is it met by `CCCCNS(N)(=O)=O` ? false

Dear colleague, could you confirm whether Ki of `NS(=O)(=O)c1cc(C(=O)N[C@@H](Cc2c[nH]cn2)C(=O)N[C@@H](Cc2ccccc2)C(=O)O)ccc1Cl` falls below 50 nM? Thanks. true

Given `COc1nc(NCCc2ccc(S(N)(=O)=O)cc2)nc(OC)n1` , is recorded Ki strictly lower than 50 nM? true
